Test system: Klebsiella pneumoniae (KPN) isolates
Test: MIC of compounds alone and combined with antibacterials, broth microdilution (CLSI)
Type: cell-based
Conditions: KPN UFR28; AF1 @ 4 μg/mL

COMPOUND	EXPERIMENTAL SYSTEM	MIC ATB in combination
COCC1=C(C(=O)O)N2C(=O)[C@@H](NC(=O)/C(=N\OC)c3csc(N)n3)[C@H]2SC1 [POD, Cefpodoxime]	Klebsiella pneumoniae (KPN) isolates	<=0.25 μg/mL
C=CC1=C(C(=O)O)N2C(=O)[C@@H](NC(=O)/C(=N\OCC(=O)O)c3csc(N)n3)[C@H]2SC1 [FIX, Cefixime]	Klebsiella pneumoniae (KPN) isolates	<=0.25 μg/mL
CC(C)(O/N=C(\C(=O)N[C@@H]1C(=O)N2C(C(=O)[O-])=C(C[n+]3ccccc3)CS[C@H]12)c1csc(N)n1)C(=O)O [CAZ, Ceftazidime]	Klebsiella pneumoniae (KPN) isolates	<=0.25 μg/mL
